assay.protocol: NCI Yeast Anticancer Drug Screen. Data for the sgs1 mgt1 strain (AID 161);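 further: 0% = growth of cultures given vehicle only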
test.context: S. cerevisiae sgs1 mgt1 strain, at 5.0 µM (retest, dose inferred, filed as 0.5), hits give high values
The panel holds about 79,000 compounds, 15% with a hit somewhere; the sample as a whole holds those more often.
readout.kind: growth inhibition (%)
Use % as the unit, but write only the number.

Sample records with growth inhibition:
Q) Please report the recorded growth inhibition for C/C(=N\NC(=S)N1CC2CCC(CC2)C1)c1ccccn1 .
A) 26

Q) Can you check CC1C(c2ccccc2)OCCN1C(=S)Nc1ccc(S(=O)(=O)N2CCCCC2)cc1 (configuration not stated) next?
A) 65

Q) Further, for Cc1ccc(/C=C2\CNC/C(=C\c3ccc(C)cc3)C2=O)cc1 ?
A) 76

Q) // same read-out, input: N#C/C(=N\O)C(N)=O
A) 2

Q) Repeat for the following compound: CCCOC1N(c2ccc(C)cc2)NC(=O)C1(C)C (configuration not stated)
A) 33

Next:
Q) Any idea what its growth inhibition is? The compound is S=C1NC2=C(COc3ccccc32)C(c2ccc(Cl)cc2)N1 (configuration not stated)
A) 85

Q) Same lookup for CN(C)c1ccc(/C=C/c2cc[n+](C)c(/C=C/c3ccc(N(C)C)cc3)c2)cc1 , please.
A) 98

Q) Could you do the same for O=[N+]([O-])c1ccc(N2CCN(Cc3ccccc3)CC2)c2c1no[n+]2[O-] , please?
A) 34

Q) Now consider COc1ccc(/C=C2/C(=O)ON=C2C)cc1 and answer again.
A) -6

Q) Another compound to look at: CC(O)C(=O)NCCc1ccccc1 (configuration not stated)
A) -1

Q) // query: CC(C)(C)N/N=C(/Cc1nc2c3c(ccc2[nH]c1=O)C(=O)c1ccccc1C3=O)C(=O)NC1=C(Cl)C(=O)c2ccccc2C1=O
A) 27

Q) Moving on to the next compound: CC(/C=N/NC(N)=S)Cc1ccc(C(C)C)cc1 (configuration not stated)
A) 98

Q) Next: CC1(C)OC2C(COC(c3ccccc3)(c3ccccc3)c3ccccc3)OC(c3c[nH]c4c(N)ncnc34)C2O1 (configuration not stated)
A) -6

Q) Try this compound next: Oc1ccc(Br)cc1Sc1cc(Br)ccc1O
A) 26

Q) Same read-out for CN1CCC(c2ccccc2)(c2ccccc2)C(=O)C1 ?
A) 21

Q) Same question for Cc1cc(O)c2c(c1)C(=O)C(c1c(C)cc3c(c1O)C(=O)C1OC1C3=O)=CC2=O (configuration not stated) please.
A) 99

Q) Next record, please: O=C(c1ccccc1)C(Br)C(Br)c1ccccc1 (configuration not stated)
A) 38

---

assay.protocol: NCI Yeast Anticancer Drug Screen. Data for the bub3 strain (AID 167)
test.context: S. cerevisiae bub3 mutant strain, at 50.0 µM (retest, dose inferred, filed as 5.0)
This is part of a sample that, as a whole, favours compounds with a hit. Of some 79,000 tested, about 15% had one in any assay. Calls of active or inactive are those of the source. Cut-off read from the data, not from the text of the source: active = growth inhibition above about 70%; inactive = the rest.
Your reply should match one of these outcome classes. active, inactive

Known results for compounds:
Q) // outcome(item) with item = O=C1c2ccccc2Cc2cccc(Cl)c21
A) inactive

Q) Further, for O=C(Cc1nc2cc(Cl)c(Cl)cc2nc1CC(=O)c1cccnc1)c1cccnc1 ?
A) active

Q) What do you get for OC(c1cc2ccc(C(F)(F)F)cc2c2cc(C(F)(F)F)ccc12)C1CCCCN1 (stereo not drawn) ?
A) active

Further cases:
Q) Which outcome was assigned to CC(=O)Oc1c(Br)cc(Br)cc1C(OC(C)=O)OC(C)=O in this test?
A) active

Q) Same read-out for CC/C(=C(/CC)c1ccc(O)cc1)c1ccc(O)cc1 ?
A) inactive

Q) Again, but for CCC1C[N+]2=C(c3cc(OC)c(OC)cc3CC2)c2c1cc1n2CCc2cc(OC)c(OC)cc2-1 (stereo not drawn)
A) active

Q) // next record CN1CSC(=S)N(Cc2ccccc2)C1
A) active

Q) Entry C[C@@H]1CCC([C@@H](C)[C@H]2CC[C@H]3[C@@H]4CC[C@H]5C[C@@H](O)CC[C@]5(C)[C@H]4CC[C@]23C)=NC1 please
A) active

---

assay.protocol: NCI Yeast Anticancer Drug Screen. Data for the sgs1 mgt1 strain (AID 161);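 further: 0% = growth of cultures given vehicle only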
test.context: S. cerevisiae sgs1 mgt1 strain, at 5.0 µM (retest, dose inferred, filed as 0.5), hits give high values
This is part of a sample that, as a whole, favours compounds with a hit. Of some 79,000 tested, about 15% had one in any assay.
readout.kind: growth inhibition (%)
Use % as the unit, but write only the number.

Q) Requested field: growth inhibition. Item: CCCCCCCCCCCC[S+](C)CC(=O)[O-] (stereo unspecified)
A) -2

New cases:
Q) Which growth inhibition is listed for S=C=Nc1ccc(N2CCOCC2)cc1 ?
A) 41

Q) And then O=C(O)c1cc2c(s1)C(=O)c1sccc1C2=O , what is it?
A) 39

Q) CC1=NN(c2ccccc2)C(=O)C1(Br)Br , same question.
A) 23

Q) Moving on to the next molecule: COc1cc(N(CCC#N)CCC#N)ccc1/C(N=Nc1ccc([N+](=O)[O-])cc1)=N/NC(=O)c1cc(Br)ccc1O
A) -6

Q) Please do the same for O=C(/C=C/C(Cl)(Cl)Cl)Nc1ccc(Cl)cc1 as well.
A) -4

---

assay.protocol: NCI Yeast Anticancer Drug Screen. Data for the rad50 strain (AID 155);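 further: 0% = growth of vehicle-only cultures of the same strain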
test.context: S. cerevisiae rad50 strain growth inhibition; at 50.0 µM; hits give high values
About 79,000 compounds went through this panel and 15% of them were active in at least one assay; those are over-represented in the sample as a whole.
Classify as follows. Reported growth inhibition greater than or equal to 70%: TRUE. Reported growth inhibition below: FALSE.

Worked cases, answers included:
Q) Is growth inhibition at least 70%? Consider N#C/C(=N\Nc1ccc(Cl)cc1)C(=O)C1CC1
A) TRUE

Q) What do you have for O=C1C(=O)c2cc([N+](=O)[O-])ccc2-c2ccccc21 ?
A) TRUE

Q) Entry to check: CC1(O)CCCCCC1
A) TRUE

Q) Next up: CC(C)N=C(N)/N=C(\N)Nc1ccc2ccc3ccccc3c2c1
A) TRUE

Q) Thanks! And COc1ccc2c(c1)C(OC)C1c3c(cc4c(c3-2)OCO4)CCN1C (stereo not drawn) ?
A) FALSE

Q) Moving on to Cn1c(COC(=O)NC2CCCCC2)c(COC(=O)NC2CCCCC2)c2ccc3cc(Cl)c(Cl)cc3c21
A) FALSE

Next:
Q) Identify whether the reported growth inhibition of the following compound is 70% or greater: COC(=O)[C@]1(C)CCC[C@@]2(C)[C@@H]3C[C@@H]4[C@H]5C[C@@]3(CC[C@@H]21)C[C@@]45C
A) TRUE

Q) Can you check CCCCCCCCCCCC1N=C(N)N=C(N)N1c1cccc(Br)c1 (stereo not drawn) next?
A) TRUE

Q) Ok, now Oc1ccc(Nc2ccc3ccccc3c2)cc1
A) TRUE

Q) Please give the result for COc1ccc(OC)c(Cc2cnc3nc(N)nc(N)c3c2C)c1 too.
A) FALSE

Q) Try this compound next: O=C(Cc1nc2cc(Cl)c(Cl)cc2nc1CC(=O)c1ccccc1)c1ccccc1
A) TRUE

---

assay.protocol: NCI Yeast Anticancer Drug Screen. Data for the mec2-1 strain (AID 157)
test.context: S. cerevisiae mec2-1 strain, at 5.0 µM (retest, dose inferred, filed as 0.5)
This is part of a sample that, as a whole, favours compounds with a hit. Of some 79,000 tested, about 15% had one in any assay. Calls of active or inactive are those of the source. No stated cut-off is given here; in the data, active means growth inhibition above about 70%; inactive means the rest.
A correct response names exactly one class from active, inactive

# example entries with known answers
Q) Each compound tested received a call. Report the one for N#CCc1cccc2ccccc12 .
A) inactive

Q) Similarly, S=C=Nc1ccc(N2CCOCC2)cc1 ?
A) inactive

Q) Likewise for CC1=C(C2=C(C)C(=O)C(=O)c3cc(C)ccc32)c2ccc(C)cc2C(=O)C1=O ?
A) active

---
Q) Outcome? N=C1C(=N)c2ccccc2-c2ccccc21
A) inactive

Q) Another: CN(C)c1ccc(/C=C/c2sc3ccc4ccccc4c3[n+]2C)cc1
A) active

Q) Param item: CC1(C)N=c2cc3c(cc2N1c1ccc(Cl)cc1)=Nc1ccccc1N3c1ccc(Cl)cc1
A) inactive

Q) Same read-out for COC(=O)c1ccc(=O)c2nc3/c(=C/O)c(O)cc(=O)c3[nH]c12 ?
A) active

Q) Also Cc1cccc(N=NC(C#N)C#N)c1 ?
A) inactive

---

assay.protocol: NCI Yeast Anticancer Drug Screen. Data for the mlh1 rad18 strain (AID 175)
test.context: S. cerevisiae mlh1 rad18 strain growth inhibition; at 5.0 µM (retest, dose inferred, filed as 0.5); hits give high values
Compounds without any hit were thinned out: in the full panel of roughly 79,000, 15% have a hit.
Parameter: growth inhibition. Scope: all listed entries.
Lab book: enter the figure in %, no units written.

Q) Query (molecule): COc1ccc(C(OCC2OC(n3ccc(NC(=O)c4ccccc4)nc3=O)C(O)C2O)(c2ccccc2)c2ccccc2)cc1 (centres undefined) ; field requested: growth inhibition
A) 62

Q) Same thing, different molecule: N#Cc1ccc(Br)cc1[N+](=O)[O-]
A) 33

Q) Here is the next molecule: CCOC(=O)c1[nH]c(C#N)c(C(=O)OCC)c1C
A) 4

Q) Let us now turn to O=C1C=CC2C3C(=O)N(c4ccccc4)C(=O)C3C1N2Cc1ccccc1 (centres undefined)
A) 51

Q) Thanks! And NC(=S)N/N=C\c1nccc2c(C(F)(F)F)cccc12 ?
A) 7

Q) What do you have for C(=N\Nc1ccc2ccccc2n1)/c1ccccn1 ?
A) 50

Q) How about this molecule: O=C(O)c1cccc2cccc(-c3c4ccc(=O)c(O)c-4oc4c(O)c(O)ccc34)c12
A) 96

Q) Now consider Nc1c(N)c(Cl)c(Cl)c(Cl)c1Cl .
A) 33
